- Test system: UniProt:P51449
- Sequence (P51449 1-497 isoform P51449-2): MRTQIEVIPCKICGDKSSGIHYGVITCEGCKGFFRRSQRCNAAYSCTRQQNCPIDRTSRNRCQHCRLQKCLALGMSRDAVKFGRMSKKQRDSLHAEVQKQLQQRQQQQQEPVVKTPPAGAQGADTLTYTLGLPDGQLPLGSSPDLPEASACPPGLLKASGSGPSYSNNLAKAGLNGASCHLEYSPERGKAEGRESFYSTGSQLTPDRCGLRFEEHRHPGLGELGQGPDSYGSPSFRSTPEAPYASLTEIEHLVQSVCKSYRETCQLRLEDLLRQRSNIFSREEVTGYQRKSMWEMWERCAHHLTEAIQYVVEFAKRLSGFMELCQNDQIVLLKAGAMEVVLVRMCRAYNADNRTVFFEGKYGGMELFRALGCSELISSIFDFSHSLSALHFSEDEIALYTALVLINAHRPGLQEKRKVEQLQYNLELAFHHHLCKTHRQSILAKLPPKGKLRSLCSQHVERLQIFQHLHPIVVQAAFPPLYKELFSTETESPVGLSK
- Test summary: Cofactor recruitment test (Alpha Screen, biotinylated SRC-1 peptide)
- Format: biochemical
- Test context: read-out: signal value inhibitory rate (%) at test compound 1 μM
Parameter: inhibition at 1 µM (%)
Answers are plain numbers, in %.

| Molecule | Scale unit | inhibition at 1 µM |
| --- | --- | --- |
| COCc1ccc([C@@H](NC(=O)[C@H]2CNC(=O)C2)C(=O)Nc2ccc(C(C)(C)C)c(F)c2)cc1 [Example 102] | % | 83.8 |
| CCNC(=O)N[C@@H](C(=O)Nc1ccc([Si](C)(C)C)c(F)c1)c1ccc(COC)cc1 [Example 90] | % | 96 |
| COc1ccc(C(C(=O)Nc2cc(F)c([Si](C)(C)C)cc2F)N(C)C(=O)c2cc(O)no2)cc1 (stereo not shown) [Example 21] | % | 93.1 |

# batch size: 4; output inhibition at 1 µM per entry
1. COCc1ccc([C@@H](NC(=O)Cn2c(=O)cc[nH]c2=O)C(=O)Nc2ccc([Si](C)(C)C)c(F)c2)cc1 [Example 60]
2. COc1ccc([C@@H](NC(=O)c2cc(O)no2)C(=O)Nc2cc(F)c([Si](C)(C)C)c(F)c2)cc1 [Example 99]
3. COc1ccc(C(NC(=O)N2CC(O)C2)C(=O)Nc2ccc([Si](C)(C)C)c(F)c2)cc1 (stereo not shown) [Example 30]
4. COCc1ccc([C@@H](NC(=O)Cc2cc(O)no2)C(=O)Nc2cc(F)c(C(C)(C)C)c(F)c2)cc1 [Example 114]

1. 96.6
2. 94.3
3. 95.1
4. 90.1

====

Record form. Attribute: inhibition at 3 µM. Fill in for each entry.
- Test system: RORγt (Homo sapiens)
- Test summary: Jurkat reporter test (human IL-17 ROR response element luciferase reporter)
- Type: cell-based
- Test context: Jurkat, read-out: luminescence level inhibitory rate (%) at test compound 3 μM
Give bare numbers, in %.

| Molecule | Scale unit | Measured number |
| --- | --- | --- |
| COCc1ccc([C@@H](NC(=O)C2CC(F)(F)C2)C(=O)Nc2ccc([Si](C)(C)C)c(F)c2)cc1 | % | 98 |
| COCc1ccc(C(C(=O)Nc2cc(F)c([Si](C)(C)C)c(F)c2)N(C)C(=O)c2cc(O)no2)cc1 (stereo not shown) | % | 100 |
| COCc1ccc(C(NC(=O)Cn2cnccc2=O)C(=O)Nc2cc(F)c([Si](C)(C)C)cc2F)cc1 (stereo not shown) | % | 101 |
| COCc1ccc([C@@H](NC(=O)Cn2c(=O)cc[nH]c2=O)C(=O)Nc2ccc([Si](C)(C)C)c(F)c2)cc1 | % | 99.7 |
| COCc1ccc([C@@H](NC(=O)Cc2nnc(C)o2)C(=O)Nc2cc(F)c([Si](C)(C)C)c(F)c2)cc1 | % | 99.4 |

# batch size: 2; output inhibition at 3 µM per entry
1. COc1ccc([C@@H](NC(=O)[C@@H]2CNC(=O)C2)C(=O)Nc2ccc([Si](C)(C)C)c(F)c2)cc1
2. COCc1ccc(C(NC(=O)Cc2nnc(C)o2)C(=O)Nc2ccc([Si](C)(C)C)c(F)c2)cc1 (stereo not shown)

[98, 101]
